Molecular target: P2X7 (UniProt Q99572)
Sequence (Q99572 1-595): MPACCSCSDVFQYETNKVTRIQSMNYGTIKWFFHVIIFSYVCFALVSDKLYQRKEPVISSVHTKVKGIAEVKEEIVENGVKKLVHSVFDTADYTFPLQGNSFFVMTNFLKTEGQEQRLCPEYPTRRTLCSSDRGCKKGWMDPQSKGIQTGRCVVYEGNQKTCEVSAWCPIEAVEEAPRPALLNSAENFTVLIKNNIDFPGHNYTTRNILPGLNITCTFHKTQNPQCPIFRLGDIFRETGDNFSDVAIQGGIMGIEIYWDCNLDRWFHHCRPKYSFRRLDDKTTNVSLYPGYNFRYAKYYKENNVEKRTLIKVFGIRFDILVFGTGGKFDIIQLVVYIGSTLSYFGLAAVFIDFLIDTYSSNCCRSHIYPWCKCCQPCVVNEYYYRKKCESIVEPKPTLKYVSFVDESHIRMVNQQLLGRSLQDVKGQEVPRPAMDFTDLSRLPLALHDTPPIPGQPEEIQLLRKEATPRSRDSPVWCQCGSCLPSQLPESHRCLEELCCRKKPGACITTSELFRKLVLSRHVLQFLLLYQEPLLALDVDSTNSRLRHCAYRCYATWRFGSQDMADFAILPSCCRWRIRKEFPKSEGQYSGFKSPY
Experiment: pIC50 values for P2X7 (Table 1)
Format: cell-based
pIC50 overview
Would you mind answering with just the numeric figure?

compound="Cc1c(CC(=O)OC(C)(C)C)cccc1NC(=O)N1C=CC(=O)C[C@H]1c1ccc(F)cc1 [Compound 144]" reported=6.215

For record COc1ccc(Br)c(NC(=O)N2C=CC(=O)C[C@H]2c2ccc(F)cc2)c1 [Compound 96] the listed pIC50 is 7.875

For record O=C1C=CN(C(=O)Nc2cc3c(cc2Br)OC(F)(F)O3)[C@H](c2ccc(F)cc2)C1 [Compound 61] the listed pIC50 is 6.365

For record COc1cc(NC(=O)N2C=CC(=O)C[C@H]2c2ccc(F)cc2)c(Br)cc1OC(F)F [Compound 42] the listed pIC50 is 7.503

For record O=C1C=CN(C(=O)Nc2cc(Cl)c(Cl)cc2Br)[C@H](c2ccc(F)cc2)C1 [Compound 9] the listed pIC50 is 6.11

For record Cc1cc(Cl)c(OC2CCNCC2)cc1NC(=O)N1C=CC(=O)C[C@H]1c1ccc(F)cc1 [Compound 142] the listed pIC50 is 6.71

For record COCCOc1cc(NC(=O)N2C=CC(=O)C[C@H]2c2ccc(F)cc2)c(Br)cc1Cl [Compound 33] the listed pIC50 is 7.27

For record Cc1nc2cc(NC(=O)N3C=CC(=O)CC3c3ccc(F)cc3)ccc2s1 (centres unmarked) [Compound 113] the listed pIC50 is 5.505

* * *

target: P2X7 (UniProt Q99572); test: pIC50 values for P2X7 (Table 1); format: cell-based
// label = met if pIC50 is not less than 7, otherwise not met

Consider the worked cases shown below.
chemicalstring=O=C1C=CN(C(=O)Nc2cc(OCCO)c(Cl)cc2Br)[C@H](c2cccc(F)c2)C1 discretelabel=met
chemicalstring=O=C1C=CN(C(=O)Nc2cc(O)c(Cl)cc2Br)[C@H](c2ccc(F)cc2)C1 discretelabel="not met"

Query: Evaluate "Cc1cc(F)c(NC(=O)N2C=CC(=O)C[C@H]2c2cccc(F)c2)cc1OCCO" : pIC50 at minimum 7?
Result: not met

Query: Evaluate "O=C1C=CN(C(=O)Nc2cc(I)c(Cl)cc2Br)[C@H](c2ccc(F)cc2)C1" : pIC50 at minimum 7?
Result: not met

Query: Evaluate "COc1cc(NC(=O)N2C=CC(=O)C[C@H]2c2ccc(F)cc2)c(Br)cc1C(=O)OC(C)(C)C" : pIC50 at minimum 7?
Result: not met
